Exercise: for every item that follows, state its recorded MIC.
Tested on: Bacillus subtilis
Assay: Antibacterial activity against Bacillus subtilis assessed as bacterial growth inhibition by broth microdilution method
Format: functional
Give bare numbers, in µg/mL.

In [3]: df
Out[3]:
                                   molecule        measured_on  unit_of_measurement  endpoint_value
0  CC(=O)Nc1ccc(S(=O)(=O)n2cc(CN3CCS(=O)(=O)CC3)nn2)cc1  Bacillus subtilis                µg/mL            1.56
1  C=CCCCCC1CC(=O)N1Cc1cn(-c2cccc([N+](=O)[O-])c2)nn1 (centres undefined)  Bacillus subtilis                µg/mL            1.25
2  C=CCCCCC1CC(=O)N1Cc1cn(-c2cccc(Cl)c2)nn1 (centres undefined)  Bacillus subtilis                µg/mL            1.25

Consider now this further molecule.
### Prompt What is its MIC for Bacillus subtilis? Entry: CC1(C)S[C@@H]2[C@H](NC(=O)[C@H](N)c3ccccc3)C(=O)N2[C@H]1C(=O)O [AMPICILLIN]
### Response 4
